- system_under_test: Cytochrome P450 2D6 (Homo sapiens)
- Sequence (P10635 whole entry): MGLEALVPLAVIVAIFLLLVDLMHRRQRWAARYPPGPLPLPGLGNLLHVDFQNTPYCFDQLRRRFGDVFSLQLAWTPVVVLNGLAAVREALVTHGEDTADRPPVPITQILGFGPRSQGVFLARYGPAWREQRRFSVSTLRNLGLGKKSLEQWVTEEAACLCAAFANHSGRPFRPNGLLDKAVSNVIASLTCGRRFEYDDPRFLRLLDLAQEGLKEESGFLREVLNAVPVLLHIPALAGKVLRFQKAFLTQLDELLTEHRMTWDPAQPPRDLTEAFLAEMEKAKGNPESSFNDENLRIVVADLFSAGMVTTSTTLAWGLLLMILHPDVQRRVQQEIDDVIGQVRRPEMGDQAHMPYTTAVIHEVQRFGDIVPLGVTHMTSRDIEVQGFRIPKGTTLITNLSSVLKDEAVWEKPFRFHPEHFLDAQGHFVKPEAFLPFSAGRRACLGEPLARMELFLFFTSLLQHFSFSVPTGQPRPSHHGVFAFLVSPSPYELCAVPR
- experimental_protocol: Inhibition of CYP2D6 (unknown origin)
- Type: ADME
metric_name: inhibition (INH)

# example entries with known answers
Value of measured inhibition (INH) for the entry COc1cnc2ccc(C(F)(F)c3nnc4c(F)cc(-c5cscn5)cn34)cc2c1 : Not Active

Value of measured inhibition (INH) for the entry Fc1cc(-c2cscn2)cn2c(C(F)(F)c3ccc4ncccc4c3)nnc12 : Not Active

Value of measured inhibition (INH) for the entry Fc1cc(-c2ccccn2)cn2c(C(F)(F)c3ccc4ncccc4c3)nnc12 : Not Active

Value of measured inhibition (INH) for the entry COc1cnc2ccc(C(F)(F)c3nnc4c(F)cc(-c5cc(C)no5)cn34)cc2c1 : Not Active

Value of measured inhibition (INH) for the entry Fc1cc(-c2cnn(C3CC3)c2)cn2c(C(F)(F)c3ccc4ncccc4c3)nnc12 : Not Active

Value of measured inhibition (INH) for the entry Cc1cc(-c2cc(F)c3nnc(C(F)(F)c4ccc5ncccc5c4)n3c2)on1 : Not Active

---
Value of measured inhibition (INH) for the entry COc1cnc2ccc(C(F)(F)c3nnc4c(F)cc(-c5cnn(C)c5)cn34)cc2c1 : Not Active

Value of measured inhibition (INH) for the entry Cc1ncc(-c2cc(F)c3nnc(C(F)(F)c4ccc5ncccc5c4)n3c2)s1 : Not Active

Value of measured inhibition (INH) for the entry Cn1cc(-c2cc(F)c3nnc(C(F)(F)c4ccc5ncccc5c4)n3c2)cn1 : Not Active

---

- experimental_protocol: Volume of distribution at steady state in Sprague-Dawley rat at 0.25 mg/kg, iv
- Assay type: ADME, organism-based
- Design: dose 0.25 mg/kg, route intravenous
- cond: in vivo, read-out: Vdss
Measured Vd, listed per entry for reference.
Write down the numeric answer in L/kg and omit the unit.

Value of measured Vd for the entry Cc1cc(-c2cc(F)c3nnc([C@](C)(F)c4ccc5ncccc5c4)n3c2)sn1 : 1.07

---
Value of measured Vd for the entry Cn1cc(-c2cc(F)c3nnc(C(F)(F)c4ccc5ncccc5c4)n3c2)cn1 : 0.13

Value of measured Vd for the entry Fc1cc(-c2cscn2)cn2c(C(F)(F)c3ccc4ncccc4c3)nnc12 : 0.39

Value of measured Vd for the entry COc1cnc2ccc([C@@](C)(F)c3nnc4c(F)cc(-c5cnn(C)c5)cn34)cc2c1 : 0.64

Value of measured Vd for the entry COc1cnc2ccc([C@@](C)(F)c3nnc4c(F)cc(-c5cc(C)ns5)cn34)cc2c1 : 1.25

Value of measured Vd for the entry Fc1cc(-c2cnn(C3CC3)c2)cn2c(C(F)(F)c3ccc4ncccc4c3)nnc12 : 0.09

---

Measured Vd, listed per entry for reference.
- experimental_protocol: Volume of distribution at steady state in Sprague-Dawley rat at 0.25 mg/kg, iv
- Type: ADME, organism-based
- Set-up: dose 0.25 mg/kg, route intravenous
- cond: in vivo, read-out: Vdss
Write down the numeric answer in L/kg and omit the unit.

# example entries with known answers
Value of measured Vd for the entry COc1cnc2ccc([C@H](C)c3nnc4c(F)cc(-c5cnn(C)c5)cn34)cc2c1 : 0.25

Value of measured Vd for the entry COc1cnc2ccc([C@H](C)c3nnc4c(F)cc(-c5cc(C)no5)cn34)cc2c1 : 0.18

Value of measured Vd for the entry COCCOc1cnc2ccc([C@H](C)c3nnc4c(F)cc(-c5cc(C)no5)cn34)cc2c1 : 4.9

---
Value of measured Vd for the entry COc1cnc2ccc(C(F)(F)c3nnc4c(F)cc(-c5cc(C)no5)cn34)cc2c1 : 0.09

Value of measured Vd for the entry Cc1cc(-c2cc(F)c3nnc(C(F)(F)c4ccc5ncccc5c4)n3c2)on1 : 0.13

Value of measured Vd for the entry Cc1cc(-c2cc(F)c3nnc([C@@H](C)c4ccc5ncccc5c4)n3c2)sn1 : 0.38

---

- experimental_protocol: Clearance in Sprague-Dawley rat at 0.25 mg/kg, iv
- Assay type: ADME, organism-based
- Set-up: dose 0.25 mg/kg, route intravenous
- cond: Sprague-Dawley, in vivo
metric_name: clearance (mL/min/kg)
Write down the numeric answer in mL/min/kg and omit the unit.

# example entries with known answers
Value of measured clearance for the entry Cc1cc(-c2cc(F)c3nnc([C@](C)(F)c4ccc5ncccc5c4)n3c2)sn1 : 30.2

Value of measured clearance for the entry COc1cnc2ccc([C@H](C)c3nnc4c(F)cc(-c5cn(C)cn5)cn34)cc2c1 : 4.33

Value of measured clearance for the entry COc1cnc2ccc([C@H](C)c3nnc4c(F)cc(-c5cnn(C)c5)cn34)cc2c1 : 2.33

---
Value of measured clearance for the entry COc1cnc2ccc([C@H](C)c3nnc4c(F)cc(-c5cc(C)no5)cn34)cc2c1 : 1.5

---

- system_under_test: Hepatocyte growth factor receptor (Homo sapiens, UniProt P08581)
- Sequence (P08581 whole entry, the tested form may be a part): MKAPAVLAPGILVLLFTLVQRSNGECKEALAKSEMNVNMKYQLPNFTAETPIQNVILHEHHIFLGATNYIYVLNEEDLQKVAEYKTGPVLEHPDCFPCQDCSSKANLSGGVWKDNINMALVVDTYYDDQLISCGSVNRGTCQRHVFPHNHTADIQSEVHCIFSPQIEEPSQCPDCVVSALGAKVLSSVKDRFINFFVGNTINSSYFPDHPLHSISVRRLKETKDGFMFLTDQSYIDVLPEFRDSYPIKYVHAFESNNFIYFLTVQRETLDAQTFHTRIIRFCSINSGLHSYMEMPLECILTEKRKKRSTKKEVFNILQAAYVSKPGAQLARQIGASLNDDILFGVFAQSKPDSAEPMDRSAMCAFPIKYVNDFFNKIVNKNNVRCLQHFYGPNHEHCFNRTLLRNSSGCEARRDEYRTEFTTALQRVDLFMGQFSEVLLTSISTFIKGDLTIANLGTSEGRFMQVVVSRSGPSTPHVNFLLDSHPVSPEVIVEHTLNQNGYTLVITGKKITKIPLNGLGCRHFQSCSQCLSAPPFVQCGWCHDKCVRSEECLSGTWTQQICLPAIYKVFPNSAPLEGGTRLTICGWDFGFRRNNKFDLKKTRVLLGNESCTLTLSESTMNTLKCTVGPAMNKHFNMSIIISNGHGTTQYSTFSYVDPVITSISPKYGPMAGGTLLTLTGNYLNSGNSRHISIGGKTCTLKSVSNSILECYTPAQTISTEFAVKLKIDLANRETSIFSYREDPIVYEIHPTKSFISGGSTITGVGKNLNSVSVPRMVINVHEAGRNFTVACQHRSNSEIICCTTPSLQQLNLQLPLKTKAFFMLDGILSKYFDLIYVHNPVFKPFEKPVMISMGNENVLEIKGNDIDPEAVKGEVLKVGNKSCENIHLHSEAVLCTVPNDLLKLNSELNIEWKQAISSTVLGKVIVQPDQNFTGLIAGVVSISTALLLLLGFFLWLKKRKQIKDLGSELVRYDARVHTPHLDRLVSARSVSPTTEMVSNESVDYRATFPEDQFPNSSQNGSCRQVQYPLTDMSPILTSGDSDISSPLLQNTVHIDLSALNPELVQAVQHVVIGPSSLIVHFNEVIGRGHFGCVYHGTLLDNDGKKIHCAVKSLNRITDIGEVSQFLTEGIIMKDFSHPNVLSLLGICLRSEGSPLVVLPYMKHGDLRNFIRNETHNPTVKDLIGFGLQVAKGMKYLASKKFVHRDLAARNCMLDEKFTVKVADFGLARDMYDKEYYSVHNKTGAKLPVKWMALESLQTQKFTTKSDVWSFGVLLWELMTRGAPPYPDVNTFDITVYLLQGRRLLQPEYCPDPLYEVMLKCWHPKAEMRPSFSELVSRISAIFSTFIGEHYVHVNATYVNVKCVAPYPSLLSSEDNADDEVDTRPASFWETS
- experimental_protocol: Inhibition of recombinant c-Met kinase domain (unknown origin) incubated for 30 mins using gastrin peptide substrate by HTRF assay
metric_name: pIC50
Formally, pIC50 is defined as -log10 of the concentration c, with c in mol/L.

# example entries with known answers
Value of measured pIC50 for the entry COc1cnc2ccc([C@@](C)(F)c3nnc4c(F)cc(-c5cnn(C)c5)cn34)cc2c1 : 8.30

Value of measured pIC50 for the entry Cc1cc(-c2cc(F)c3nnc([C@](C)(F)c4ccc5ncccc5c4)n3c2)sn1 : 8.30

Value of measured pIC50 for the entry Cc1ncc(-c2cc(F)c3nnc(C(F)(F)c4ccc5ncccc5c4)n3c2)s1 : 7.96

Value of measured pIC50 for the entry Cc1cc(-c2cc(F)c3nnc([C@@H](C)c4ccc5ncccc5c4)n3c2)sn1 : 8.15

Value of measured pIC50 for the entry COc1cnc2ccc([C@H](C)c3nnc4c(F)cc(-c5cnn(C)c5)cn34)cc2c1 : 8.70

Next up:
Value of measured pIC50 for the entry Cn1cc(-c2cc(F)c3nnc(C(F)(F)c4ccc5ncccc5c4)n3c2)cn1 : 7.66

---

- system_under_test: Hepatocyte growth factor receptor (Homo sapiens, UniProt P08581)
- experimental_protocol: Inhibition of recombinant c-Met kinase domain (unknown origin) incubated for 30 mins using gastrin peptide substrate by HTRF assay
Lab note: cut-off is 30 nM. Strictly less in IC50 is Met. Exactly 30 nM or more is Not met.

// below: answered molecules
Exam item: Quick check: does COc1cnc2ccc([C@@](C)(F)c3nnc4c(F)cc(-c5cc(C)no5)cn34)cc2c1 have IC50 under 30 nM?
Marked response: Met

Exam item: Quick check: does Fc1cc(-c2ccccn2)cn2c(C(F)(F)c3ccc4ncccc4c3)nnc12 have IC50 under 30 nM?
Marked response: Met

Exam item: Quick check: does Fc1cc(-c2ccccc2)cn2c(Cc3ccc4ncccc4c3)nnc12 have IC50 under 30 nM?
Marked response: Not met

Exam item: Quick check: does COc1cnc2ccc([C@@H](C)c3nnc4c(F)cc(-c5cc(C)no5)cn34)cc2c1 have IC50 under 30 nM?
Marked response: Not met

Exam item: Quick check: does Cn1cc(-c2cc(F)c3nnc(Cc4ccc5ncccc5c4)n3c2)cn1 have IC50 under 30 nM?
Marked response: Met

Exam item: Quick check: does Cc1cc(-c2cc(F)c3nnc(C(C)(C)c4ccc5ncc(O)cc5c4)n3c2)on1 have IC50 under 30 nM?
Marked response: Not met

---
Exam item: Quick check: does COc1cnc2ccc([C@H](C)c3nnc4c(F)cc(-c5cc(C)no5)cn34)cc2c1 have IC50 under 30 nM?
Marked response: Met

Exam item: Quick check: does CC(=O)Nc1nc2ccc(Cc3nnc4c(F)cc(-c5cnn(C)c5)cn34)cc2s1 have IC50 under 30 nM?
Marked response: Not met

Exam item: Quick check: does Fc1cc(-c2cnn(C3CC3)c2)cn2c(C(F)(F)c3ccc4ncccc4c3)nnc12 have IC50 under 30 nM?
Marked response: Met

Exam item: Quick check: does COc1ccc2c(OCc3nnc4ccc(-c5ccccc5)cn34)ccnc2c1 have IC50 under 30 nM?
Marked response: Not met

---

- system_under_test: Hepatocyte growth factor receptor (Homo sapiens, UniProt P08581)
- experimental_protocol: Inhibition of HGF-stimulated c-Met autophosphorylation in serum starved human PC3 cells pre-incubated for 1 hr followed by human recombinant HGF stimulation for 10 mins by quantitative electrochemiluminescence immunoassay
- Assay type: cell-based, PC-3
metric_name: log10 IC50 (log10 of the value in nM)
Response schema: value (number) is log10 of IC50 in units of nM.

Value of measured log10 IC50 for the entry COc1cnc2ccc([C@@](C)(F)c3nnc4c(F)cc(-c5cnn(C)c5)cn34)cc2c1 : 0.85

Value of measured log10 IC50 for the entry COc1cnc2ccc([C@@](C)(F)c3nnc4c(F)cc(-c5cc(C)no5)cn34)cc2c1 : 0.48

Value of measured log10 IC50 for the entry COc1cnc2ccc([C@H](C)c3nnc4c(F)cc(-c5cc(C)ns5)cn34)cc2c1 : 1.34

Value of measured log10 IC50 for the entry Fc1cc(-c2cnn(C3CC3)c2)cn2c(C(F)(F)c3ccc4ncccc4c3)nnc12 : 1.40

Value of measured log10 IC50 for the entry Cn1cc(-c2cc(F)c3nnc(C(F)(F)c4ccc5ncccc5c4)n3c2)cn1 : 1.18

---
Value of measured log10 IC50 for the entry COc1cnc2ccc([C@H](C)c3nnc4c(F)cc(-c5cnn(C)c5)cn34)cc2c1 : 1.18

Value of measured log10 IC50 for the entry COc1cnc2ccc(C(F)(F)c3nnc4c(F)cc(-c5cscn5)cn34)cc2c1 : 0.85

Value of measured log10 IC50 for the entry COc1cnc2ccc(C(F)(F)c3nnc4c(F)cc(-c5cc(C)no5)cn34)cc2c1 : 0.90

Value of measured log10 IC50 for the entry Fc1cc(-c2ccccn2)cn2c(C(F)(F)c3ccc4ncccc4c3)nnc12 : 1.51

Values were extracted from ChEMBL document CHEMBL3414463.
